From: ChEMBL document CHEMBL1817551

Experiment: Lipophilicity, log D of the compound
Format: physicochemical
Conditions: octanol/water
result.type: logD
Please reply with the value in numeric form only.

- CC(C)(C)OC(=O)NC[C@H]1CC[C@H](CNC(=O)c2cc(N3CCC(CCO)CC3)nc3ccccc23)CC1: 4.5

Give reported logD value for CN(C)CCn1cc(-c2cc(C(=O)NC[C@H]3CC[C@H](CNC(=O)OC(C)(C)C)CC3)c3ccccc3n2)cn1
3.6

Please supply the value of reported logD for the item Cc1cc(C(=O)NC[C@H]2CC[C@H](CNC(=O)OC(C)(C)C)CC2)cc(-c2ccccc2)n1
5.3

Provide one value: measured logD of CN(C)CCC1CCN(c2cc(C(=O)NC[C@H]3CC[C@H](CNC(=O)OC4CCOCC4)CC3)c3ccccc3n2)CC1
2.3
